// data source = patent US5015639A

Documented minimal effective dose across a set of compounds
- Tested on: conditioned avoidance response (CAR)
- method notes: Conditioned avoidance suppression in rats (Rat CAR)
- Format: in vivo
- measurement parameters: po, lowest dose that significantly (P<0.05) reduced avoidance responding, read-out: Rat CAR, minimal effective dose (MED)

Field: example entries. Status: answers known.
compound: CC(=O)Oc1cc2c(cc1Cl)CCN(C)CC2CC=C(C)C (stereo not shown) [Compound 19]
result: > 30 mg/kg

compound: CN1CCc2cc(Cl)c(O)cc2C(Oc2ccccc2)C1 (stereo not shown) [Compound 4]
result: 10 mg/kg

compound: C=CCC1CN(C)CCc2cc(Cl)c(O)cc21 (stereo not shown) [Compound 14]
result: > 30 mg/kg

compound: C=CCC1CN(C)CCc2cc(Cl)c(OC(=O)C(C)C)cc21 (stereo not shown) [Compound 17]
result: > 30 mg/kg

compound: CN1CCc2cc(Cl)c(O)cc2C(OCc2ccccc2)C1 (stereo not shown) [Compound 10]
result: > 30 mg/kg

Field minimal effective dose (entry C=CCC1CN(C)CCc2cc(Cl)c(OCOC(=O)C(C)(C)C)cc21 (stereo not shown) [Compound 20] ) reads > 30 mg/kg

Field minimal effective dose (entry COC1CN(C)CCc2cc(Cl)c(O)cc21 (stereo not shown) [Compound 1] ) reads > 30 mg/kg

* * *

- assay system: D-2 receptor (Rattus norvegicus)
- Construct: Striatal tissue was excised, pooled, and homogenized; tissue Charles River Breeding Laboratories, Mass; (animals)
- Sequence (P61169 whole entry): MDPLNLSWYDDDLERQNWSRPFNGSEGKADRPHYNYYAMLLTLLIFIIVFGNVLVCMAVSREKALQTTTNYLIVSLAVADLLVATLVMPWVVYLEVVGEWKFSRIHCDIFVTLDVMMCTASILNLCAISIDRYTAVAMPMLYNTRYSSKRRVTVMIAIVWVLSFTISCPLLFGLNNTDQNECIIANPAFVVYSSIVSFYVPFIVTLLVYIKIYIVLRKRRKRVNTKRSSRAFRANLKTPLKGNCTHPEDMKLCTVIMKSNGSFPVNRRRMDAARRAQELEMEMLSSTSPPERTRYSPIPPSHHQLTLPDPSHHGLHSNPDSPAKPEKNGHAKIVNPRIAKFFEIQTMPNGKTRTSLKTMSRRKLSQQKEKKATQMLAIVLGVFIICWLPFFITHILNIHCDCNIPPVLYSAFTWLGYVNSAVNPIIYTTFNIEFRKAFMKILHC
- method notes: Competitive inhibition assay vs. 3H-spiperone (D-2 receptor binding)
- measurement parameters: rat striatal homogenate, 0.2 nM 3H-spiperone, pH 7.4, 37° C., 15 min
Mark condition met only for Ki values smaller than 2 µM; exact matches and larger values are condition not met.

molecule: CN1CCc2cc(Cl)c(O)cc2C(n2cccc2)C1 (stereo not drawn)
assay system: D-2 receptor (Rattus norvegicus)
group: condition not met
//
molecule: CN1CCc2cc(Cl)c(O)cc2C(C2CCCC2)C1 (stereo not drawn)
assay system: D-2 receptor (Rattus norvegicus)
group: condition met
//
molecule: C=CCC1CN(C)CCc2cc(Cl)c(OCOC(=O)C(C)(C)C)cc21 (stereo not drawn)
assay system: D-2 receptor (Rattus norvegicus)
group: condition not met
//
molecule: COC1CN(C)CCc2cc(Cl)c(O)cc21 (stereo not drawn)
assay system: D-2 receptor (Rattus norvegicus)
group: condition not met
//
molecule: C=CCC1CN(C)CCc2cc(Cl)c(O)cc21 (stereo not drawn)
assay system: D-2 receptor (Rattus norvegicus)
group: condition met

Given the entry C=CCC1CN(C)CCc2cc(Cl)c(OC(=O)COC)cc21 (stereo not drawn) , would its reported Ki be below 2 µM?
condition met

Given the entry C=CCC1CN(C)CCc2cc(Cl)c(OC(=O)C(C)C)cc21 (stereo not drawn) , would its reported Ki be below 2 µM?
condition not met

Given the entry CCSC1CN(C)CCc2cc(Cl)c(O)cc21 (stereo not drawn) , would its reported Ki be below 2 µM?
condition not met

Given the entry CCOC1CN(C)CCc2cc(Cl)c(O)cc21 (stereo not drawn) , would its reported Ki be below 2 µM?
condition not met

Given the entry CN1CCc2cc(Cl)c(O)cc2C(Sc2ccccc2)C1 (stereo not drawn) , would its reported Ki be below 2 µM?
condition met

Given the entry CCSC1CNCCc2cc(Cl)c(O)cc21 (stereo not drawn) , would its reported Ki be below 2 µM?
condition not met

Given the entry CN1CCc2cc(Cl)c(O)cc2C2(CCCC2)C1 , would its reported Ki be below 2 µM?
condition met

Given the entry CCOC(=O)Oc1cc2c(cc1Cl)CCN(C)CC2C1CCCCC1 (stereo not drawn) , would its reported Ki be below 2 µM?
condition not met

Given the entry CN1CCc2cc(Cl)c(O)cc2C(OCC(F)(F)F)C1 (stereo not drawn) , would its reported Ki be below 2 µM?
condition not met

Given the entry CN1CCc2cc(Cl)c(O)cc2C(=Cc2ccccc2)C1 , would its reported Ki be below 2 µM?
condition met

Given the entry CN1CCc2cc(Cl)c(O)cc2C(C2C=CCCC2)C1 (stereo not drawn) , would its reported Ki be below 2 µM?
condition met

Given the entry CN1CCc2cc(Cl)c(O)cc2C(OCc2ccccc2)C1 (stereo not drawn) , would its reported Ki be below 2 µM?
condition not met

Given the entry CN1CCc2cc(Cl)c(O)cc2C(C2CCCCC2)C1 (stereo not drawn) , would its reported Ki be below 2 µM?
condition met

Given the entry CN1CCc2cc(Cl)c(O)cc2C(OCCc2ccccc2)C1 (stereo not drawn) , would its reported Ki be below 2 µM?
condition met

Given the entry CN(C)CCCC1CN(C)CCc2cc(Cl)c(O)cc21 (stereo not drawn) , would its reported Ki be below 2 µM?
condition not met

Given the entry CN1CCc2cc(Cl)c(O)cc2C(OC2CCCCC2)C1 (stereo not drawn) , would its reported Ki be below 2 µM?
condition not met
